These entries and their values trace back to PubChem BioAssay (NCATS).

# experimentalSystem: Ubiquitin carboxyl-terminal hydrolase 1 (Homo sapiens)
# experiment: Inhibitors of USP1/UAF1: Pilot qHTS (AID 504865); note: nearly all actives have a fitted effect of over 35% in size
# experimentalParameters: purified USP1/UAF1, Ub-rhodamine cleavage fluorescence; series mostly up to 114 µM
Results filed as inconclusive are left out. The source made the active and inactive calls. Calls come from the whole dose curve; as a rule, active = well fitted inhibition curve with a large enough effect; inconclusive = small, poorly fitted or top-dose-only effect; inactive = flat fitted curve, though single readings scatter.
# valid calls are 1 (yes) for active, 0 (no) for inactive; nothing else

# fetch the recorded call for `CCCC(=O)O` here 0 (no)

In this assay, the call recorded for `CN=C1C=CC(=C(c2ccc(N(C)C)cc2)c2ccc(N(C)C)cc2)C=C1` was what? 1 (yes)

----------
Listed here: items and their measured ratio activity, negative = inhibition.
# experiment: S16 Schwann cell PMP22 intronic element beta-lactamase assay (AID 624044);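 note: 0% = DMSO and -100% = potassium clavulanate positive control; nearly all actives have a fitted effect of over 15% in size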
# experimentalParameters: S16 rat Schwann cells, PMP22 element beta-lactamase FRET, 24 h; at 38.3 µM (top of the series) unless noted
Inconclusive results are not listed.
// units = %; emit number, no label

Consider the reported ratio activity, negative = inhibition for these molecules:
INSERT INTO assay_data (molecule, result) VALUES
  ('CCC(Cc1c(I)cc(I)c(O)c1I)C(=O)O (configuration not stated)', 3.55),
  ('O=C(OC1C[C@@H]2CC3C[C@H](C1)N2CC3=O)c1c[nH]c2ccccc12 (some centres not stated)', -0.0634),
  ('Oc1cc(O)cc(O)c1', 10.4);

Sample `CCN(CC)CCOc1ccccc1OC` ; ratio activity, negative = inhibition observed: -7.82

// field: ratio activity, negative = inhibition; key: `CCCCO` ; value = 1.65

----------
# experiment: qHTS assay for small molecule activators of the p53 signaling pathway (AID 651743); note: % of control where 0% means no effect
# experimentalParameters: HCT-116 p53RE-bla, beta-lactamase FRET ratio, 16 h; active compounds read high
Inconclusive results are not listed. The source made the active and inactive calls. The call rests on the fitted dose curve; in most records, active means well fitted activation curve with a large enough effect in the signal ratio (not every such curve was filed as active); inconclusive means small, poorly fitted or top-dose-only effect, or a change in a side signal; inactive means flat fitted curve, though single readings scatter; the % refers to the signal ratio.
activation overview

INSERT INTO results (molecule, result) VALUES
  ('CC(C)CCCCCCc1ccc(O)cc1', '2.32% (inactive)'),
  ('C=C(C)C1CC=C(C)CC1 (stereo unspecified)', '-4.46% (inactive)'),
  ('C[C@H](CCC(=O)O)[C@H]1CC[C@H]2[C@@H]3[C@H](O)C[C@@H]4C[C@H](O)CC[C@]4(C)[C@H]3C[C@H](O)[C@]12C', '-1.29% (inactive)');

For this molecule ( `O=C(OCc1ccccc1)c1ccc(O)cc1` ), measured activation is -6.7% (inactive)

----------
# Tested on: KB-3-1
# experiment: Cytotoxic Profiling of Annotated Libraries Using Quantitative High-Throughput Screening (AID 1296008); note: % is set by controls: 0 for no effect and ±100 for the full control effect; nearly all actives have a fitted effect of over 60% in size
# experimentalParameters: Five cell lines viability, CellTiter-Glo ATP luminescence, 48-72 h; active compounds read low
# Protocol: Cell-based phenotypic screening is a commonly used approach to discover biological pathways, novel drug targets, chemical probes and high-quality hit-to-lead molecules. […] A pintool (Kalypsys) was used to transfer 23 nL of compound solution to the 1536-well assay plates. […] Plates were left at room temperature for 10 min before imaging the ATP-coupled luminescence using a ViewLux microplate imager (PerkinElmer, Waltham, MA).
Inconclusive results are not listed.
recordedMetric: max response (%)
Respond with the bare value in %.

Observe how each entry below is paired with its result.
INSERT INTO assay_data (compound, result) VALUES
  ('O.O.O.O.O.O.O.O=S(=O)([O-])[O-].[Co+2]', -0.614),
  ('Nc1nc(=O)n([C@@H]2CS[C@H](CO)O2)cc1F', 6.08),
  ('CCOC(=S)SSC(=S)OCC', 4.67);

Now consider a different compound.
Please fill in: max response reported for C=CC(C)(O)CC/C=C(\C)CCC=C(C)C (stereo unspecified) = 0.0537

----------
# experimentalSystem: Voltage-gated inwardly rectifying potassium channel KCNH2 (Homo sapiens) (UniProt Q12809)
# Sequence (Q12809 whole entry, looked up): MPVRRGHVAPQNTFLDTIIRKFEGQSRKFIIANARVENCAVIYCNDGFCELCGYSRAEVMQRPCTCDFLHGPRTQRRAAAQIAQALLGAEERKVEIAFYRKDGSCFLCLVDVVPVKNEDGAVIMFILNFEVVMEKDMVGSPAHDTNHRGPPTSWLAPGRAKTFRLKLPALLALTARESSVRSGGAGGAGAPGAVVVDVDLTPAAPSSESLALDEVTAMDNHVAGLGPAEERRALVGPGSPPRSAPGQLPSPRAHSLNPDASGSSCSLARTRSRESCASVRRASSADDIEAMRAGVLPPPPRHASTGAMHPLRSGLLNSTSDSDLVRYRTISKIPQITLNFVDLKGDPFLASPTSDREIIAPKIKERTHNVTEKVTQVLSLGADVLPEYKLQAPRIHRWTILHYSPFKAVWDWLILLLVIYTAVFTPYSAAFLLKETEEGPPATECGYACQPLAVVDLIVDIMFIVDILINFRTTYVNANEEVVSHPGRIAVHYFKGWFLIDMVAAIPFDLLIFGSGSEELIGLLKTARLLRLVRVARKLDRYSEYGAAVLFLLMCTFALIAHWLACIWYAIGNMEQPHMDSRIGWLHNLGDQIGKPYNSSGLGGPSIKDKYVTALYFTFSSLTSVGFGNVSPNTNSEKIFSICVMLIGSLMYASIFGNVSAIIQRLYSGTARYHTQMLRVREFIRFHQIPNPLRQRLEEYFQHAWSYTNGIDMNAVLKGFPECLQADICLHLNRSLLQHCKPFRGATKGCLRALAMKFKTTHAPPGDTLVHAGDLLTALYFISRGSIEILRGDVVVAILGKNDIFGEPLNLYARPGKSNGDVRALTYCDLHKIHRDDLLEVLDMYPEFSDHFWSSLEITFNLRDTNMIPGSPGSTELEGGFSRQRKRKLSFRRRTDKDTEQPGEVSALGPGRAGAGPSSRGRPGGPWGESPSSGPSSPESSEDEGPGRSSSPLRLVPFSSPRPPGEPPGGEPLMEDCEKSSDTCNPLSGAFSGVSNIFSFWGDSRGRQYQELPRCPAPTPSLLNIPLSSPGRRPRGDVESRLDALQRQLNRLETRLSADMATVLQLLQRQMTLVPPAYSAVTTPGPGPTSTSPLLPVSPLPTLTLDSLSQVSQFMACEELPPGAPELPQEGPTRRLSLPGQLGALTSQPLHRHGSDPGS
# experiment: qHTS Assay for Small Molecule Inhibitors of the Human hERG Channel Activity (AID 588834);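 note: U2OS cells transduced with hERG by BacMam; top concentration of the series differs between compounds; % is set by controls: 0 for no effect and ±100 for the full control effect; lower thallium flux fluorescence means stronger hERG block; nearly all actives have a fitted effect of over 50% in size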
# experimentalParameters: U2OS BacMam hERG, FluxOR thallium flux fluorescence; series mostly up to 46.1 µM
Results filed as inconclusive are left out. The source made the active and inactive calls. Calls come from the whole dose curve; as a rule, active = well fitted inhibition curve with a large enough effect; inconclusive = small, poorly fitted or top-dose-only effect; inactive = flat fitted curve, though single readings scatter.
Pick one: label 1 (active), label 0 (inactive)

INSERT INTO results (molecule, assignedcategory) VALUES
  ('Cn1c(=O)c2c(ncn2CCOC(=O)C(C)(C)Oc2ccc(Cl)cc2)n(C)c1=O', 'label 0');

Next up:
For `C=Cc1ccc(S(=O)(=O)O)cc1` , what call appears in the results of this test? label 0

----------
# experiment: qHTS drug screen for cell cycle checkpoint inhibitors in PARPi-resistant BRCA-mutant ovarian cancer cell lines. (AID 1963452)
# experimentalParameters: PEO1/OlaR viability, CellTiter-Glo luminescence, 96 h; active compounds read low
Define the label as true when Z-AUC is strictly less than 0.6 and as false in all remaining cases.

Record excerpt, results attached:
INSERT INTO results (compound, assignedcategory) VALUES
  ('C=CC[C@@H]1/C=C(\C)C[C@H](C)C[C@H](OC)[C@H]2O[C@@](O)(C(=O)C(=O)N3CCCC[C@H]3C(=O)O[C@H](/C(C)=C/[C@@H]3CC[C@@H](O)[C@H](OC)C3)[C@H](C)[C@@H](O)CC1=O)[C@H](C)C[C@@H]2OC', 'false'),
  ('Oc1ccc(/C=C/c2cc(O)cc(O)c2)cc1', 'false'),
  ('CCCCC[C@H](O)/C=C/[C@H]1[C@H](O)CC(=O)[C@@H]1CCCCCCC(=O)O', 'true'),
  ('CN(C)CCOc1ccc(/C(=C(/CCCl)c2ccccc2)c2ccccc2)cc1', 'false'),
  ('CC(=O)NCCCS(=O)(=O)O', 'false'),
  ('CC[C@H]1OC(=O)[C@H](C)[C@@H](O[C@H]2C[C@@](C)(OC)[C@@H](O)[C@H](C)O2)[C@H](C)[C@@H](O[C@@H]2O[C@H](C)C[C@H](N(C)C)[C@H]2O)[C@](C)(O)C[C@@H](C)CN(C)[C@H](C)[C@@H](O)[C@]1(C)O', 'false'),
  ('CO[C@H]1C[C@@H]2CC[C@@H](C)[C@@](O)(O2)C(=O)C(=O)N2CCCC[C@H]2C(=O)O[C@H]([C@H](C)C[C@@H]2CC[C@@H](OC(=O)C(C)(CO)CO)[C@H](OC)C2)CC(=O)[C@H](C)/C=C(\C)[C@@H](O)[C@@H](OC)C(=O)[C@H](C)C[C@H](C)/C=C/C=C/C=C/1C', 'true'),
  ('CC[C@H](CC[C@@H](C)[C@H]1CC[C@H]2[C@@H]3CC=C4C[C@@H](O)CC[C@]4(C)[C@H]3CC[C@]12C)C(C)C', 'false');

State whether 0.6 exceeds Z-AUC recorded for `COc1cc(C)c(/C=C/C(C)=C/C=C/C(C)=C/C(=O)O)c(C)c1C` . false

Given the entry `C=CC[N+]1([C@H]2C[C@H]3[C@@H]4CC[C@H]5C[C@H](O)[C@@H](N6CCOCC6)C[C@]5(C)[C@H]4CC[C@]3(C)[C@H]2OC(C)=O)CCCC1` , would its reported Z-AUC be below 0.6? false

Below 0.6 on Z-AUC? Entry `COC1=C(OC)C(=O)C(C/C=C(\C)CC/C=C(\C)CC/C=C(\C)CC/C=C(\C)CC/C=C(\C)CC/C=C(\C)CC/C=C(\C)CC/C=C(\C)CC/C=C(\C)CCC=C(C)C)=C(C)C1=O` true

For `CCC[C@@H]1C[C@@H](C(=O)N[C@@H]([C@H]2O[C@H](SC)[C@H](O)[C@@H](O)[C@H]2O)[C@H](C)Cl)N(C)C1` , is the recorded Z-AUC below the cut-off of 0.6? false

Quick check: does CN[C@@H]1[C@@H](O)[C@@H](O[C@@H]2[C@@H](O)[C@H](O[C@H]3O[C@H](CN)[C@@H](O)[C@H](O)[C@H]3O)[C@@H](N)C[C@H]2NC(=O)C(O)CN)OC[C@]1(C)O (stereo partly drawn) have Z-AUC under 0.6? true

----------
# experiment: qHTS Assay for Identifying Gametocytocidal Compounds (AID 743244);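 note: % is set by controls: 0 for no effect and ±100 for the full control effect; actives lower the fluorescent signal which means gametocytes are killed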
# experimentalParameters: P. falciparum 3D7 stage III-V gametocytes, alamarBlue, 72 h; active compounds read low
Records with an inconclusive call do not appear.
recordedMetric: max response (%)
Report the figure in % without appending any unit label.

INSERT INTO measurements (compound, recordedmetric, result) VALUES
  ('Cc1cc(C(=O)NCCc2ccc(S(=O)(=O)NC(=O)NN3CCCCCC3)cc2)no1', 'max response', 4.46);

For record `COc1ccc(C[C@H](C)NC[C@@H](O)c2ccc(O)c(NC=O)c2)cc1` the listed max response is -5.27

For this compound ( `O=P(O)(O)CP(=O)(O)O` ), measured max response is -3.27

Item: CC1CC(O)CC(C)(C)C1 (stereo unspecified) | max response: -5.15

// sample CN[C@@H]1[C@@H](O)[C@@H](O[C@@H]2[C@@H](O)[C@H](OC3OC(CN)=CCC3N)[C@@H](N)C[C@H]2N)OC[C@]1(C)O (stereo partly specified) , its max response was -3.17

Short answer for `CCCCCCOC(=O)c1cccnc1` : max response was 30.2

Data point: `O=C1C2CC3CC1CC(O)(C3)C2` ; max response = 6.58

The compound C=CC1=C(C(=O)O)N2C(=O)[C@@H](NC(=O)/C(=N/OCC(=O)O)c3csc(N)n3)[C@H]2SC1 (stereo in doubt) showed max response equal to -1.34

Consider `CC1(C)S[C@@H]2[C@H](NC(=O)C3(N)CCCCC3)C(=O)N2[C@H]1C(=O)O` . Its measured max response is 7.96

# compound `O=C[C@H](O)[C@@H](O)[C@@H](O)[C@H](O)CO` ; its max response = -6.65

max response measured on `OCCOCCOCCO` = -2.42
